# System: 782815-120-R-J1-PDC complex spheroid viability
# test summary: Anticancer human tumor 782815-120-R-J1-PDC patient-derived colon adenocarcinoma cell line growth inhibition [RAS]
# cond: second compound 0.0949 µM; first compound 0.01 µM; stronger effect = lower value
quantity measured: viability, T/C (%)
Numbers only, in %.

Consider the worked cases shown below.
[
  {
    "compound": "C=CC(=O)N1CCN(c2nc(OCC3CCCN3C)nc3c(F)c(-c4nc(N)cc(C)c4C(F)(F)F)c(Cl)cc23)C(C)C1 (stereo not drawn) + CCn1c(-c2cc(N3CCN(C)CC3)cnc2C(C)OC)c2c3cc(ccc31)-c1csc(n1)CC(NC(=O)C1CC1C)C(=O)N1CCCC(N1)C(=O)OCC(C)(C)C2",
    "viability, T/C / %": 14.3
  },
  {
    "compound": "C=CC(=O)Nc1cc(Nc2nccc(-c3cn(C)c4ccccc34)n2)c(OC)cc1N(C)CCN(C)C + CCn1c(-c2cccnc2C(C)OC)c2c3cc(ccc31)N1CCOC(CC(NC(=O)C(C(C)C)N(C)C(=O)C3(F)CCN(C(=O)C#CC(C)(C)N(C)C)CC3)C(=O)N3CCCC(N3)C(=O)OCC(C)(C)C2)C1",
    "viability, T/C / %": 94.8
  }
]

Now for another entry.
input: Any idea what its viability, T/C is? The compound is CC(C)n1nc(-c2ccc3oc(N)nc3c2)c2c(N)ncnc21 + CCn1c(-c2cccnc2C(C)OC)c2c3cc(ccc31)N1CCOC(CC(NC(=O)C(C(C)C)N(C)C(=O)C3(F)CCN(C(=O)C#CC(C)(C)N(C)C)CC3)C(=O)N3CCCC(N3)C(=O)OCC(C)(C)C2)C1
output: 83.7

---

# Tested on: 782815-120-R-J1-PDC complex spheroid viability
# test summary: Anticancer human tumor 782815-120-R-J1-PDC cell line growth inhibition [RAS];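 note: spheroids exposed to compounds for 7 days before reading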
# cond: curve of first compound; second compound 0.00949 µM
pIC50: −log10 of the molar value.
Give pIC50 for every item shown.

Consider the worked cases shown below.
[
  {
    "compound": "CCN1CCN(Cc2ccc(Nc3ncc(F)c(-c4cc(F)c5nc(C)n(C(C)C)c5c4)n3)nc2)CC1 + CCn1c(-c2cccnc2C(C)OC)c2c3cc(ccc31)N1CCOC(CC(NC(=O)C(C(C)C)N(C)C(=O)C3(F)CCN(C(=O)C#CC(C)(C)N(C)C)CC3)C(=O)N3CCCC(N3)C(=O)OCC(C)(C)C2)C1",
    "pIC50": "< 6.00"
  },
  {
    "compound": "CCN1CCN(Cc2ccc(Nc3ncc(F)c(-c4cc(F)c5nc(C)n(C(C)C)c5c4)n3)nc2)CC1 + CCn1c(-c2cc(N3CCN(C)CC3)cnc2C(C)OC)c2c3cc(ccc31)-c1csc(n1)CC(NC(=O)C1CC1C)C(=O)N1CCCC(N1)C(=O)OCC(C)(C)C2",
    "pIC50": "> 8.50"
  }
]

input: Any idea what its pIC50 is? The compound is CCc1c2c(nc3ccc(O)cc13)-c1cc3c(c(=O)n1C2)COC(=O)[C@]3(O)CC + CCn1c(-c2cccnc2C(C)OC)c2c3cc(ccc31)N1CCOC(CC(NC(=O)C(C(C)C)N(C)C(=O)C3(F)CCN(C(=O)C#CC(C)(C)N(C)C)CC3)C(=O)N3CCCC(N3)C(=O)OCC(C)(C)C2)C1
output: 8.40

---

# Tested on: 782815-120-R-J1-PDC complex spheroid viability
# test summary: Anticancer human tumor 782815-120-R-J1-PDC cell line growth inhibition [RAS];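 note: spheroids exposed to compounds for 7 days before reading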
# cond: curve of first compound; second compound 0.000949 µM
Give IC50 for every item shown.

[
  {
    "compound": "CC(=O)OC12COC1CC(O)C1(C)C(=O)C(O)C3=C(C)C(OC(=O)C(O)C(NC(=O)OC(C)(C)C)c4ccccc4)CC(O)(C(OC(=O)c4ccccc4)C21)C3(C)C (centres undefined) + CCn1c(-c2cccnc2C(C)OC)c2c3cc(ccc31)N1CCOC(CC(NC(=O)C(C(C)C)N(C)C(=O)C3(F)CCN(C(=O)C#CC(C)(C)N(C)C)CC3)C(=O)N3CCCC(N3)C(=O)OCC(C)(C)C2)C1",
    "study system": "782815-120-R-J1-PDC complex spheroid viability",
    "IC50": "< 0.0316 µM"
  },
  {
    "compound": "CC(C)NCC(C(=O)N1CCN(c2ncnc3c2C(C)CC3O)CC1)c1ccc(Cl)cc1 (centres undefined) + CCn1c(-c2cccnc2C(C)OC)c2c3cc(ccc31)N1CCOC(CC(NC(=O)C(C(C)C)N(C)C(=O)C3(F)CCN(C(=O)C#CC(C)(C)N(C)C)CC3)C(=O)N3CCCC(N3)C(=O)OCC(C)(C)C2)C1",
    "study system": "782815-120-R-J1-PDC complex spheroid viability",
    "IC50": "> 10 µM"
  },
  {
    "compound": "C=CC(=O)N1CCN(c2nc(OCC3CCCN3C)nc3c(F)c(-c4nc(N)cc(C)c4C(F)(F)F)c(Cl)cc23)C(C)C1 (centres undefined) + CCn1c(-c2cc(N3CCN(C)CC3)cnc2C(C)OC)c2c3cc(ccc31)-c1csc(n1)CC(NC(=O)C1CC1C)C(=O)N1CCCC(N1)C(=O)OCC(C)(C)C2",
    "study system": "782815-120-R-J1-PDC complex spheroid viability",
    "IC50": "> 1 µM"
  }
]

Now for another entry.
input: Any idea what its IC50 is? The compound is NC1c2ccccc2OC12CCN(c1cnc3c(N4CCCc5ncccc54)n[nH]c3n1)CC2 (centres undefined) + CCn1c(-c2cccnc2C(C)OC)c2c3cc(ccc31)N1CCOC(CC(NC(=O)C(C(C)C)N(C)C(=O)C3(F)CCN(C(=O)C#CC(C)(C)N(C)C)CC3)C(=O)N3CCCC(N3)C(=O)OCC(C)(C)C2)C1
output: > 10 µM

---

# Test system: 782815-120-R-J1-PDC complex spheroid viability
# test summary: Anticancer human tumor 782815-120-R-J1-PDC cell line growth inhibition [RAS];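 note: spheroids exposed to compounds for 7 days before reading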;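 for viability, T/C: 100% = DMSO vehicle control viability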
# cond: second compound 0.03 µM; first compound 0.01 µM; stronger effect = lower value
# Description: RAS pathway inhibitors in Combinations in Complex Spheroids A high-throughput screen of multi-cell type tumor spheroids was designed to identify active combinations of RAS pathway inhibitors and targeted small molecules. Complex spheroids include a stromal component modeled by human endothelial cells (HUVEC) and fibroblasts modeled by human mesenchymal stem cells (MSCs). […] Compounds. […] If the clinical Cmax for an agent had not been determined, the highest concentration tested was 10 microM. […]
Note that class boundaries on viability, T/C are low range: < 20%; mid range: ≥ 20% and < 80%; high range: ≥ 80%

Some entries whose results are on file:
[
  {
    "compound": "C=CC(=O)Nc1cc(Nc2nccc(-c3cn(C)c4ccccc34)n2)c(OC)cc1N(C)CCN(C)C + CCn1c(-c2cc(N3CCN(C)CC3)cnc2C(C)OC)c2c3cc(ccc31)-c1csc(n1)CC(NC(=O)C1CC1C)C(=O)N1CCCC(N1)C(=O)OCC(C)(C)C2",
    "label": "mid range"
  },
  {
    "compound": "CC(C)n1nc(-c2ccc3oc(N)nc3c2)c2c(N)ncnc21 + CCn1c(-c2cccnc2C(C)OC)c2c3cc(ccc31)N1CCOC(CC(NC(=O)C(C(C)C)N(C)C(=O)C3(F)CCN(C(=O)C#CC(C)(C)N(C)C)CC3)C(=O)N3CCCC(N3)C(=O)OCC(C)(C)C2)C1",
    "label": "high range"
  },
  {
    "compound": "O=C(c1ccc(F)c(F)c1Nc1ccc(I)cc1F)N1CC(O)([C@@H]2CCCCN2)C1 + CCn1c(-c2cc(N3CCN(C)CC3)cnc2C(C)OC)c2c3cc(ccc31)-c1csc(n1)CC(NC(=O)C1CC1C)C(=O)N1CCCC(N1)C(=O)OCC(C)(C)C2",
    "label": "low range"
  },
  {
    "compound": "C=CC(=O)N1CCN(c2nc(OCC3CCCN3C)nc3c(F)c(-c4nc(N)cc(C)c4C(F)(F)F)c(Cl)cc23)C(C)C1 (stereo not given) + CCn1c(-c2cc(N3CCN(C)CC3)cnc2C(C)OC)c2c3cc(ccc31)-c1csc(n1)CC(NC(=O)C1CC1C)C(=O)N1CCCC(N1)C(=O)OCC(C)(C)C2",
    "label": "mid range"
  },
  {
    "compound": "CCN1CCN(Cc2ccc(Nc3ncc(F)c(-c4cc(F)c5nc(C)n(C(C)C)c5c4)n3)nc2)CC1 + CCn1c(-c2cccnc2C(C)OC)c2c3cc(ccc31)N1CCOC(CC(NC(=O)C(C(C)C)N(C)C(=O)C3(F)CCN(C(=O)C#CC(C)(C)N(C)C)CC3)C(=O)N3CCCC(N3)C(=O)OCC(C)(C)C2)C1",
    "label": "high range"
  },
  {
    "compound": "CCN1CCN(Cc2ccc(Nc3ncc(F)c(-c4cc(F)c5nc(C)n(C(C)C)c5c4)n3)nc2)CC1 + CCn1c(-c2cc(N3CCN(C)CC3)cnc2C(C)OC)c2c3cc(ccc31)-c1csc(n1)CC(NC(=O)C1CC1C)C(=O)N1CCCC(N1)C(=O)OCC(C)(C)C2",
    "label": "mid range"
  },
  {
    "compound": "C=CC(=O)N1CCN(c2nc(OCC3CCCN3C)nc3c(F)c(-c4nc(N)cc(C)c4C(F)(F)F)c(Cl)cc23)C(C)C1 (stereo not given) + CCn1c(-c2cccnc2C(C)OC)c2c3cc(ccc31)N1CCOC(CC(NC(=O)C(C(C)C)N(C)C(=O)C3(F)CCN(C(=O)C#CC(C)(C)N(C)C)CC3)C(=O)N3CCCC(N3)C(=O)OCC(C)(C)C2)C1",
    "label": "high range"
  },
  {
    "compound": "CC(C)n1nc(-c2ccc3oc(N)nc3c2)c2c(N)ncnc21 + CCn1c(-c2cc(N3CCN(C)CC3)cnc2C(C)OC)c2c3cc(ccc31)-c1csc(n1)CC(NC(=O)C1CC1C)C(=O)N1CCCC(N1)C(=O)OCC(C)(C)C2",
    "label": "low range"
  }
]

input: // return the class label for Nc1ccn(C2OC(CO)C(O)C2(F)F)c(=O)n1 (stereo not given) + CCn1c(-c2cccnc2C(C)OC)c2c3cc(ccc31)N1CCOC(CC(NC(=O)C(C(C)C)N(C)C(=O)C3(F)CCN(C(=O)C#CC(C)(C)N(C)C)CC3)C(=O)N3CCCC(N3)C(=O)OCC(C)(C)C2)C1
output: mid range

input: Again, but for Nc1ccn(C2OC(CO)C(O)C2(F)F)c(=O)n1 (stereo not given) + CCn1c(-c2cc(N3CCN(C)CC3)cnc2C(C)OC)c2c3cc(ccc31)-c1csc(n1)CC(NC(=O)C1CC1C)C(=O)N1CCCC(N1)C(=O)OCC(C)(C)C2
output: mid range
